# Target desc: TJP1_2, Q07157
# Sequence (Q07157 181-274): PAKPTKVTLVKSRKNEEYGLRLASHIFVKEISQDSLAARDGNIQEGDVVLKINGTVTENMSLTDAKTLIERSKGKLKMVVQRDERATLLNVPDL
# Protocol notes: holdup assay
# Set-up: key: below the threshold = too weak to quantify, mostly under pKd 3.1 to 4
# Assay conditions: plain residues with an end cap or a label only (N-terminal biotin on a linker: ado-ado)
Result type: pKd

INSERT INTO assay_data (binder, recorded_result) VALUES
  ('GVHSNDHSVV [LPAR1, Q92633]', 'below the threshold'),
  ('TFSRRPKTRV [CD226, Q15762]', 3.5),
  ('DFKHTKSFII [JAM2, P57087]', 'below the threshold'),
  ('LLQEEWETVM [PTH1R, Q03431]', 'below the threshold'),
  ('QLGSPTADLA [SIPA1, Q96FS4]', 'below the threshold'),
  ('GDSSRKEYFI [GYPC, P04921]', 'below the threshold'),
  ('RSPVATATSC [DUSP5, Q16690]', 'below the threshold'),
  ('VISSDDLTEL [CAPN6, Q9Y6Q1]', 'below the threshold'),
  ('NNMAFETTHF [SLC5A12, Q1EHB4]', 'below the threshold'),
  ('PDSYHRRDFW [U2AF2, P26368]', 3.72),
  ('TNSKQGETTV [FZD1, Q9UP38]', 3.48),
  ('DLLGGGSDSI [TNRC6B, Q9UPQ9]', 3.62),
  ('PAALPESTHM [SLC9A3, P48764]', 'below the threshold'),
  ('HYPASPDSWV [CTNND2, Q9UQB3]', 4.19),
  ('FHSIKQSTAV [CRHR1, P34998]', 'below the threshold'),
  ('THHRKIHTRV [ZNF599, Q96NL3]', 3.62),
  ('HLSTRQGTCV [ATRNL1, Q5VV63]', 'below the threshold'),
  ('VKQYADVEGF [HNRNPK, P61978;P61978-2]', 'below the threshold'),
  ('STYCDYTIEI [FAM71C, Q8NEG0]', 3.65),
  ('KPDKQEEFYA [SDC3, O75056]', 'below the threshold'),
  ('YAEKRMLTEV [KCNA6, P17658]', 'below the threshold'),
  ('KIEDVEITLV [FCHSD2, O94868]', 'below the threshold'),
  ('KAEEKPPSKV [SCN4B, Q8IWT1]', 'below the threshold'),
  ('LVEEEEPMNL [HDAC7, Q8WUI4]', 'below the threshold'),
  ('PGKKPEDSRV [SLCO2B1, O94956]', 'below the threshold'),
  ('DSEEELPTRL [GRK6, P43250]', 'below the threshold'),
  ('DYSNLRETDI [ADRA1D, P25100]', 'below the threshold'),
  ('EPAKETTTNV [SLC2A3, P11169]', 'below the threshold'),
  ('EAVTVESTSL [SLC22A11, Q9NSA0]', 'below the threshold'),
  ('ADEMICITTL [CACNA1D, Q01668]', 'below the threshold'),
  ('MLPANYVEAI [NEB, P20929]', 'below the threshold'),
  ('GQNMTVSVVI [PRLHR, P49683]', 3.69);
